test: Pharmacokinetics of vandetanib and N-demethyl vandetanib in SD rats with or without luteolin (UPLC-MS/MS of plasma); format: in vivo, Sprague-Dawley (SD) rats; details: male, Sprague-Dawley, rat, plasma, po, 25 mg/kg, luteolin 30 mg/kg by gavage 30 min before vandetanib 25 mg/kg by gavage, plasma, read-out: Cmax
METRIC: Cmax (ng/mL)
Please give a number only; it is taken to be in ng/mL.

Find the recorded Cmax belonging to COc1cc2c(Nc3ccc(Br)cc3F)ncnc2cc1OCC1CCN(C)CC1 and report it.
1140

* * *

test: in vitro; details: rat, pH 7.4
METRIC: Km at 30 min (µM)
Write the value in µM as a bare number.

Data request, read-out Km at 30 min, for COc1cc2c(Nc3ccc(Br)cc3F)ncnc2cc1OCC1CCN(C)CC1
9.41

Data origin: paper PMC11911205
